Target: Parkinson's disease protein 7 (PARK7/DJ1) (human)
Sequence (Q99497 whole entry, looked up): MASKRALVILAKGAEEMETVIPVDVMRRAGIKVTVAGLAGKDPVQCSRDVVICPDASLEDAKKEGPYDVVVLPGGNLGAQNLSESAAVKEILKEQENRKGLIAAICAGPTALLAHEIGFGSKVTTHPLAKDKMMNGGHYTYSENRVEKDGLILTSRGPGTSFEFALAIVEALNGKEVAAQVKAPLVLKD
Experiment: primary screen, percent inhibition; read as competition with a fluorescent probe by fluorescence polarization; higher = more effect of the substance
Details: 100 µM
Screen size: about 7,900 compounds; about 400 (5.1%) showed an effect of 50% or more. The list comes from a sample in which strong results are over-represented; it also holds close analogues and randomly drawn compounds.
Would you please tag the item Fulfilled when its Inhibition % is 30% or above, and Not fulfilled when it is below?

MOLECULE: O=C(CCl)N1CCNC1=O
CLASS: Fulfilled

MOLECULE: C=CC(=O)N1CC(=O)NC2CCCCC21 (stereo not shown)
CLASS: Not fulfilled

MOLECULE: CC1(C)C(=O)Nc2ccc(C(=O)CCl)cc21
CLASS: Fulfilled

MOLECULE: CS(=O)(=O)N1CCCc2cc(C(=O)CCl)ccc21
CLASS: Fulfilled

MOLECULE: O=C1OCCC1N1CCN(c2nccs2)CC1 (stereo not shown)
CLASS: Not fulfilled

MOLECULE: O=C1CN(C(=O)CCl)CCN1
CLASS: Fulfilled

MOLECULE: CCNS(=O)(=O)c1ccc(B2OC(C)(C)C(C)(C)O2)c(C)c1
CLASS: Not fulfilled

MOLECULE: C=CC(=O)N1CCCC(n2ccnn2)CC1 (stereo not shown)
CLASS: Not fulfilled

MOLECULE: O=C1CCc2cc(C(=O)CCl)c(F)cc2N1
CLASS: Not fulfilled

MOLECULE: CN(C)S(=O)(=O)c1ccc(S)nc1
CLASS: Fulfilled

MOLECULE: O=C(CCl)N1CCNCC1.O=C(O)C(F)(F)F
CLASS: Not fulfilled

MOLECULE: CCC(C)c1ccccc1NC(=O)CCl (stereo not shown)
CLASS: Not fulfilled

MOLECULE: CCS(=O)(=O)N1CCc2cc(C(=O)CCl)ccc21
CLASS: Not fulfilled

MOLECULE: O=C(CCCl)NC1CCCCC1
CLASS: Not fulfilled

MOLECULE: CCN(CC)C(=O)c1ccc(NC(=O)CCl)cc1
CLASS: Fulfilled

MOLECULE: O=C1CCCc2cc(C(=O)CCl)ccc2N1
CLASS: Fulfilled

MOLECULE: COc1cc(C)c(C(C)NC(=O)CCl)cc1OC (stereo not shown)
CLASS: Not fulfilled

MOLECULE: O=C(CCl)Nc1ccc2[nH]c(C(F)(F)F)nc2c1
CLASS: Fulfilled

MOLECULE: C=CC(=O)Nc1ccc2c(c1)CCCC(=O)N2
CLASS: Not fulfilled

MOLECULE: O=S(=O)(C=Cc1ccc(Cl)cc1)NCC1CCCO1 (stereo not shown)
CLASS: Not fulfilled

MOLECULE: Cc1cc(C)cc(OC(=O)N2CCOCC2)c1
CLASS: Not fulfilled

MOLECULE: C=CC(=O)NCCN(C)C1CCCCC1
CLASS: Not fulfilled

MOLECULE: CCN(C(=O)CCl)c1ccc(F)cc1
CLASS: Fulfilled

MOLECULE: CCc1nccn1S(=O)(=O)c1ccc(Cl)c(C)c1
CLASS: Not fulfilled

MOLECULE: CC(C)c1ccc(C(C)NC(=O)CCl)cc1 (stereo not shown)
CLASS: Not fulfilled

MOLECULE: O=C1CCc2cc(C(=O)CCl)ccc2N1
CLASS: Fulfilled

MOLECULE: CC(C)c1ccc(NC(=O)CCl)cc1
CLASS: Fulfilled

MOLECULE: CCN(C(=O)Cn1cnc(C#N)n1)C1=CCCCC1
CLASS: Not fulfilled

# credit: paper PMC9574860
